Source listed as PubChem BioAssay.

System: Lefty1
Assay: Lefty1 binders on small-molecule microarrays, primary screen, biochemical, small-molecule microarray, 635/667 nm fluorescence (AID 1139)
Conditions: small-molecule microarray binding, fluorescence 635/667; higher = more signal
Classification by composite z-score | ranges: 0 (below -0.5), 1 (-0.5 to below 0.02), 2 (0.02 or more)

Answered examples (4):
CO[C@H]1O[C@H](CO)[C@@H](OC(=O)CCc2ccccc2)[C@@H]2OC(=O)[C@@H](Cc3ccc4ccccc4c3)C/C=C/C[C@H](Cc3ccc4ccccc4c3)C(=O)O[C@@H]12 = 1
COc1ccc(CCNC(=O)[C@@]2(c3ccc([N+](=O)[O-])cc3)CC(=O)N(C3CCCCC3)[C@@H]2c2ccc(CO)cc2I)cc1 = 2
CC(C)c1ccc(NN2C(C(O)c3ccccc3)C=CC3C(=O)N(c4ccccc4)C(=O)C32)cc1 (stereo not given) = 0
CN1C2C=C(c3ccc(CO)cc3)C(C3C(=O)N(C(N)=O)C(=O)C32)C1C1CC1 (stereo not given) = 0

Incoming: Entry C=CCNC(=O)[C@H]1[C@@H]2C(=O)O[C@@H](c3ccccc3)[C@@H](c3ccccc3)N2[C@@H](c2ccc(OCCO)cc2)[C@]12C(=O)N(C(=O)OCCOC)c1ccc(C#CCC(C(=O)OC)C(=O)OC)cc12 belongs to which category?
Outgoing: 2

Incoming: Lab log: Cc1ccc(S[C@]2(C(=O)NCCN3CCOCC3)CC(=O)N(C(C)C)[C@@H]2c2ccc(CO)cc2I)cc1 — assign composite z-score category
Outgoing: 0

Incoming: Which bin, given its composite z-score, does CC(C)[Si](C#Cc1ccccc1)(O[C@H](c1ccccc1)c1cn(Cc2ccccc2)nn1)C(C)C occupy?
Outgoing: 1

Incoming: Hey, which category is COC(=O)[C@@]1(Cc2ccc(F)cc2)[C@@H]2C(=CC(=O)[C@H]2CC(=O)C(=O)N2CCCC2)CN1C(=O)c1ccccc1 in, do you know?
Outgoing: 2

Incoming: Which composite z-score category applies to CC(C)c1ccc(NN2C(C(O)C(C)c3ccccc3)C=CC3C(=O)N(c4ccccc4)C(=O)C32)cc1 (stereo not given) here?
Outgoing: 2

---

Experiment: small-molecule microarray binders of probe aShh, primary screen, biochemical, biotinylated probe, 635/667 nm fluorescence (AID 1114);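 further: probe is biotin-labelled aShh protein from a stem cell growth factor screen; measures binding of labelled protein to compounds printed on the slide; score merges feature fluorescence at 667 nm with signal-to-noise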
Details: higher = more signal
ATTRIBUTE MEASURED: composite z-score
Answer with a number only.

Incoming: Give reported composite z-score value for O=C/C=C/c1ccc(-c2ccccc2)cc1
Outgoing: -0.341

Incoming: For the molecule CCCCC(=C=CC[C@@H](O)c1ccccc1OCCO)C[C@@H](O)c1ccccn1 , give its reported composite z-score.
Outgoing: -0.0904

Incoming: Using known records, supply composite z-score for C=CCOC(=O)[C@@H]1[C@H]2C(=O)O[C@H](c3ccccc3)[C@H](c3ccccc3)N2[C@H](c2ccc(OCCOC(=O)[C@H]3C[C@H]4C(=O)N[C@@H](CCCCN(C)C)C(=O)N4[C@H]3c3cccc(OCCO)c3)cc2)[C@@]12C(=O)Nc1ccccc12
Outgoing: 0.584

Incoming: Supply measured composite z-score of COC(=O)[C@@]1(Cc2ccccc2)[C@H]2c3cc(C(=O)N(C)C)n(Cc4nc5ccccc5[nH]4)c3C[C@H]2CN1C(=O)c1ccccc1 in your reply.
Outgoing: 0.108

Incoming: Name the recorded composite z-score of the item COC(=O)Cn1c(C(=O)N(C)C)cc2c1C[C@H]1CN(C(=O)c3ccccc3)[C@@](Cc3ccccc3)(C(=O)OC)[C@@H]21 in your answer.
Outgoing: 0.253

Incoming: Read off the recorded composite z-score for NCCCCCCNC(=O)[C@@H]1C[C@@H]2C(=O)NCC(=O)N2[C@@H]1c1cccc(OCCO)c1
Outgoing: 0.0639

Incoming: // Input: O=C1O[C@@H](c2ccccc2)[C@@H](c2ccccc2)N2[C@@H](c3ccccc3OCCO)[C@]3(C(=O)Nc4ccc(C#CC5(O)CCCCCC5)cc43)[C@@H](C(=O)N3CCCCCCC3)[C@H]12 . Output its composite z-score only.
Outgoing: 3.04

Incoming: Consider the molecule C=C(COC)/C(=C/C[C@@H](OC(=O)c1ccncc1)c1ccccc1OCCO)c1cnc2ccccc2c1 . State its measured composite z-score.
Outgoing: 0.111

Incoming: Given the molecule COC(=O)[C@]1(Cc2ccccc2N=[N+]=[N-])N=C(c2ccc(OCCCO)cc2)O[C@@H]1c1ccccc1CN=[N+]=[N-] , write its reported composite z-score.
Outgoing: -0.0324

Incoming: // Input: Cc1ccc(S[C@]2(C(=O)NCC(C)C)CC(=O)N(C(C)C)[C@@H]2c2ccc(CO)cc2I)cc1 . Output its composite z-score only.
Outgoing: -0.0035

Incoming: Check the records and state composite z-score for O=C(NC1CC1)[C@@H]1c2ccccc2C(=O)N(C2CCCCC2)[C@H]1c1ccc(CO)cc1
Outgoing: -0.321

Incoming: Determine from records and report composite z-score for CC(C)[Si](C#Cc1ccccc1)(O[C@H](c1ccccc1)c1cn(Cc2ccccc2)nn1)C(C)C
Outgoing: -0.138
